Attribution: paper PMC12069442

system: rat liver microsomes (RLM); assay: Inhibitor screening on ziprasidone metabolism in RLM; assay type: in vitro ADME; conditions: 100 μM inhibitor, 0.3 mg/mL RLM, ziprasidone 10 μM, 20 min
Structures can show the parent of a compound that is named as a salt.
# Relative activity (%) binned as class 1: < 40%; class 2: ≥ 40% and < 80%; class 3: ≥ 80%

                                   compound               target_entity    group
0  O=C1CCC[C@@H]2[C@H]3CCCN4CCC[C@@H](CN12)[C@@H]34 [Matrine]  rat liver microsomes (RLM)  class 3
1  CCCCC(=O)N(Cc1ccc(-c2ccccc2-c2nnn[nH]2)cc1)[C@H](C(=O)O)C(C)C [Valsartan]  rat liver microsomes (RLM)  class 2
2  O=c1cc(-c2ccccc2)oc2cc(O)c(O)c(O)c12 [Baicalein]  rat liver microsomes (RLM)  class 3
3  O=C1CCc2cc(OCCCCc3nnnn3C3CCCCC3)ccc2N1 [Cilostazol]  rat liver microsomes (RLM)  class 2

Lab note: sort CCCCc1oc2ccc(NS(C)(=O)=O)cc2c1C(=O)c1ccc(OCCCN(CCCC)CCCC)cc1 [Dronedarone Hydrochloride] into the matching Relative activity (%) band.
class 1

Any idea which band Cc1cc(O)c2c(c1)C(=O)c1cc(O)cc(O)c1C2=O [Emodin] is in?
class 1

Could you place CCOC(=O)C1=C(COCCN)NC(C)=C(C(=O)OC)C1c1ccccc1Cl (centres unmarked) [Amlodipine] in its proper category? Many thanks.
class 1

Which of the defined bands does the recorded Relative activity (%) of COc1cc(C2Oc3cc([C@H]4Oc5cc(O)cc(O)c5C(=O)[C@@H]4O)ccc3OC2CO)ccc1O (some centres unmarked) [Silibinin] sit within?
class 2
